Hey, just so you know, these numbers are from ChEMBL document CHEMBL1150584.

Please go through the items and note down their EC50.
Test system: Botrytis cinerea
Experiment: Inhibition of germ tube formation in Botrytis cinerea VIAM MA2725 after 16 hrs by microdilution technique
Format: functional, organism-based
The reply should contain only the number, in µg/mL.

EC50 reading for `Cc1c(O)cc(-c2cc3ccccc3o2)cc1O` : 29

EC50 reading for `COc1cc(-c2cc3c(O)cccc3o2)c(C)c(OC)c1C` : 50

EC50 reading for `Cc1c(O)cc(CCc2ccccc2)cc1O` : 10

EC50 reading for `COc1ccccc1CCc1cc(O)c(C)c(O)c1` : 11

EC50 reading for `COc1cc(-c2cc3c(O)cccc3o2)c(C)c(O)c1C` : 26

EC50 reading for `COc1cc(O)cc(-c2cc3c(O)cccc3o2)c1` : 8

---

Test system: Alternaria citri
Experiment: Inhibition of germ tube formation in Alternaria citri VIAM MA1627 after 16 hrs by microdilution technique
Type: functional, organism-based
observation-type: EC90

EC90 reading for `COc1c(C)c(O)c(C)c(-c2cc3c(O)cccc3o2)c1C` : > 200 µg/mL

EC90 reading for `COc1cc(-c2cc3c(O)cccc3o2)c(C)c(OC)c1C` : > 200 µg/mL

EC90 reading for `COc1cc(-c2cc3c(O)c(C)ccc3o2)c(C)c(O)c1C` : > 200 µg/mL

EC90 reading for `Cc1c(O)cc(CCc2ccccc2)cc1O` : > 200 µg/mL

EC90 reading for `Cc1c(O)cc(-c2cc3ccccc3o2)cc1O` : 528 µg/mL

EC90 reading for `COc1cc(-c2cc3c(O)cccc3o2)c(C)c(O)c1C` : > 200 µg/mL

EC90 reading for `COc1ccccc1CCc1cc(O)cc(O)c1` : > 200 µg/mL

EC90 reading for `COc1cc(O)cc(-c2cc3c(O)cccc3o2)c1` : 128 µg/mL

EC90 reading for `CCCCNC(=O)n1c(NC(=O)OC)nc2ccccc21` : > 200 µg/mL

EC90 reading for `COc1ccccc1CCc1cc(O)c(C)c(O)c1` : > 200 µg/mL

---

Tested on: Alternaria citri
Assay: Inhibition of germ tube formation in Alternaria citri VIAM MA1627 after 16 hrs by microdilution technique
Type: functional, organism-based
observation-type: MIC

MIC reading for Cc1c(O)cc(-c2cc3ccccc3o2)cc1O [STEMOFURAN C] : > 200 µg/mL

MIC reading for COc1ccccc1CCc1cc(O)c(C)c(O)c1 [STILBOSTEMIN D] : > 200 µg/mL

MIC reading for COc1c(C)c(O)c(C)c(-c2cc3c(O)cccc3o2)c1C [STEMOFURAN F] : > 200 µg/mL

MIC reading for CCCCNC(=O)n1c(NC(=O)OC)nc2ccccc21 [BENOMYL] : > 200 µg/mL

MIC reading for COc1cc(O)cc(-c2cc3c(O)cccc3o2)c1 [STEMOFURAN B] : 200 µg/mL

---

Test system: Alternaria citri
Assay: Inhibition of germ tube formation in Alternaria citri VIAM MA1627 after 16 hrs by microdilution technique
Assay type: functional, organism-based
observation-type: MIC

MIC reading for `COc1cc(-c2cc3c(O)cccc3o2)c(C)c(OC)c1C` : > 200 mg/L

MIC reading for `Cc1c(O)cc(CCc2ccccc2)cc1O` : 200 mg/L

MIC reading for `COc1ccccc1CCc1cc(O)cc(O)c1` : > 200 mg/L

MIC reading for `COc1cc(-c2cc3c(O)c(C)ccc3o2)c(C)c(O)c1C` : > 200 mg/L

MIC reading for `COc1cc(-c2cc3c(O)cccc3o2)c(C)c(O)c1C` : > 200 mg/L
